Ref: ChEMBL document CHEMBL1156829

tested on: Plasmodium falciparum; experiment: NOVARTIS: Inhibition of Plasmodium falciparum 3D7 (drug-susceptible) proliferation in erythrocyte-based infection assay; format: functional, organism-based; settings: Plasmodium falciparum, 3D7
MEASUREMENT NAME: log10(EC50) (log10 of the value in µM)
Scale: log10; quantity: EC50; unit before log: µM

CCOC(=O)c1cccc(N2C(N)=NC(N)=NC2(C)C)c1 = -0.83
C=CC[n+]1c(C=C2C=CC=CN2C)sc2ccccc21 = -0.31
CN(c1ccccc1)S(=O)(=O)c1ccc(C(=O)Nc2ccc(-c3nc4ccccc4[nH]3)cc2)cc1 = -0.10

Working through the 4 compounds below one at a time, give log10(EC50) for each.
1. O=C1NC(=O)C(Cc2ccc(S(=O)(=O)N3CCN(c4ccccc4)CC3)cc2)S1 (stereo unspecified)
2. CCN1CCN(c2cc(C)c3cc(NC(=O)c4cccc([N+](=O)[O-])c4)ccc3n2)CC1
3. Cc1ccc2ccc(C(Nc3ccccn3)c3ccc(Br)cc3)c(O)c2n1 (stereo unspecified)
4. Nc1c(C(=O)Nc2ccc(F)cc2)sc2nc3c(c(-c4cccs4)c12)CCCCC3

1. -0.10
2. -1.02
3. 0.09
4. -0.03

---

test system: Plasmodium falciparum; assay: NOVARTIS: Inhibition of Plasmodium falciparum W2 (drug-resistant) proliferation in erythrocyte-based infection assay; format: functional, organism-based; conditions: Plasmodium falciparum, W2; read-out: EC50
MEASUREMENT NAME: EC50 (nM)
One number for each entry, in nM.

CC1(C)Cc2nc3ccccc3c(NCc3ccc(Cl)cc3)c2C(O)C1 (stereo not given) = 2110

For each of the molecules below, note its EC50.
1. CCc1ccc(C(=O)N2CCCn3cccc3C2c2ccc(C(C)(C)C)cc2)cc1 (stereo not given)
2. CN1CCN(c2cc(-c3ccncc3)nc(-c3cccnc3)n2)CC1
3. CCC(c1nc2ccccc2c(=O)n1-c1cccc(C)c1)N(CCc1ccccc1)C(=O)Nc1c(C(C)C)cccc1C(C)C (stereo not given)
4. CC(C)CCN1C(=O)N(CCN(C)C)C(=O)C12CCN(Cc1ccc(O)cc1)CC2
5. CCOC(=O)C1=C(C)NC2=C(C(=O)CC(C)(C)C2)C1c1ccc(Cl)cc1 (stereo not given)
6. Cc1cc(C)n(CC(O)Cn2c3ccc(Br)cc3c3cc(Br)ccc32)n1 (stereo not given)

1160
494
1100
123
67.6
284

Quick batch: EC50 for everything below.
1. Cc1cc(C)c2c(c1)-c1c(ssc1=S)C(C)(C)N2C(=O)COc1nc2ccccc2s1
2. COc1ccc(C(NC(=O)COc2ccccc2)c2cc(Cl)c3cccnc3c2O)cc1 (stereo not given)
3. COCCCNc1nc2cc(OC)c(OC)cc2c2nc(-c3ccccc3)nn12
4. OCCNc1nc(Nc2ccccc2O)nc2ccccc12

1. 169
2. 918
3. 541
4. 2470

Please go through the list and note EC50 for each molecule.
1. Cc1nn(CC(O)Cn2c3ccc(Br)cc3c3cc(Br)ccc32)c(C)c1Br (stereo not given)
2. CC[C@H](C)C[C@H]1CC[C@](O)([C@](C)(O)C(=O)N[C@@H]2C(=O)N3NCCC[C@@H]3C(=O)N(O)[C@@H](C)C(=O)NCC(=O)N3NCCC[C@H]3C(=O)N(O)[C@H](C)C(=O)O[C@H]2C(C)C)O[C@@H]1C
3. COc1ccc(/C=C/c2ccc3ccccc3[n+]2C)cc1

[177, 567, 30.4]

For record Cc1ccc(C=NNc2ncnc3nc[nH]c23)cc1 the listed EC50 is 804

---

system: Plasmodium falciparum; assay: NOVARTIS: Inhibition of Plasmodium falciparum 3D7 (drug-susceptible) proliferation in erythrocyte-based infection assay; format: functional, organism-based; settings: Plasmodium falciparum, 3D7
pEC50: −log10 of the molar value.
Rule: Satisfied for pEC50 not less than 6, Not satisfied for anything less.

CC1CC2CCC(O2)C(C)C(=O)O[C@H](C)CC2CCC(O2)C(C)C(=O)OC(C)CC2CCC(O2)C(C)C(=O)O[C@H](C)CC2CCC(O2)C(C)C(=O)O1 (some centres not stated) = Satisfied
N#CC1=C(N)Oc2c3c(c4ccccc4c2C1c1ccc(F)cc1)C(c1ccc(F)cc1)C(C#N)=C(N)O3 (configuration not stated) = Not satisfied

Switching to the query record.
API: above_or_equal(metric=pEC50, cutoff=6) for item CS[C@H]1SC[C@H]2C(=O)N(C)[C@@H](C(C)C)C(=O)OC[C@@H](NC(=O)c3cnc4ccccc4n3)C(=O)N[C@@H](C)C(=O)N(C)[C@@H]1C(=O)N(C)[C@@H](C(C)C)C(=O)OC[C@@H](NC(=O)c1cnc3ccccc3n1)C(=O)N[C@@H](C)C(=O)N2C
Satisfied

---

Kindly supply the reported EC50 values for the records listed here.
system: Plasmodium falciparum; experiment: NOVARTIS: Inhibition of Plasmodium falciparum 3D7 (drug-susceptible) proliferation in erythrocyte-based infection assay; format: functional, organism-based; details: Plasmodium falciparum, 3D7
One number for each entry, in µM.

COc1cc(C2Nc3ccc4ccccc4c3C3=C2C(=O)CC(C)(C)C3)ccc1Oc1ccc([N+](=O)[O-])cc1C(F)(F)F (centres undefined) = 0.285
CC(NC(=S)N(Cc1ccco1)Cc1cc2cc3c(cc2[nH]c1=O)OCO3)c1ccccc1 (centres undefined) = 1.37
CCCCCCCn1c2c(c(=N)c3ccccc31)CCC2 = 0.277
CC(/C=C/C(=O)NO)=C\[C@@H](C)C(=O)c1ccc(N(C)C)cc1 = 0.2
CC(C)(c1ccc(Oc2ccc(NC(=O)C(F)(F)F)cc2)cc1)c1cccc(Oc2ccc(NC(=O)C(F)(F)F)cc2)c1 = 2.06

Please report EC50 for every entry that follows.
1. CCC[P+](CCC)(CCC)CC1OCc2ccccc2CO1
2. FC(F)(F)c1cccc(NC(=S)N2CCSC2c2ccc(Br)cc2)c1 (centres undefined)
3. CC1=CC(=C(C#N)c2nc3ccccc3s2)C=C(C)N1CC1CCCO1 (centres undefined)

1: 1.8; 2: 0.217; 3: 0.411

---

assay: NOVARTIS: Cytotoxicity against human hepatocellular carcinoma cell line (Huh7); assay type: toxicity, cell-based, Huh-7; settings: Huh7 cells (hepatocellular carcinoma cell line)
MEASUREMENT NAME: CC50

Solved entries (count: 10):
Cc1cc(=O)oc2c1ccc1oc(C(=O)c3ccccc3)c(C)c12 = > 100 µM
CC1(C)CC(=O)C2=C(C1)Nc1ccccc1N(C(=O)Cc1ccccc1)C2c1ccc([N+](=O)[O-])s1 (configuration not stated) = > 10 µM
O=C(NCCCCNc1ccnc2cc(Cl)ccc12)c1cc(C(F)(F)F)cc(C(F)(F)F)c1 = > 10 µM
Cc1c(C(=O)N2CCN(c3cccc(Cl)c3)CC2)sc2ncnc(N(C)c3ccccc3)c12 = > 10 µM
CC(=O)N(Cc1ccc(F)cc1)C1=C(NCc2ccccc2)C(=O)c2ccccc2C1=O = > 10 µM
COc1ccc(Cn2c(=S)[nH]c3ccsc3c2=O)cc1 = > 10 µM
COc1cc2nc(NCCN3CCOCC3)n3nc(-c4ccccc4)nc3c2cc1OC = > 10 µM
COc1ccccc1N1C(=N)S/C(=C/c2ccc(N(C)C)cc2)C1=O = > 10 µM
CCc1cccc(NC(=O)CCCn2c(=O)c3cccn3c3ccccc32)c1 = > 10 µM
CC(NC(=S)N(Cc1ccco1)Cc1cc2cc3c(cc2[nH]c1=O)OCO3)c1ccccc1 (configuration not stated) = > 100 µM

For each of the compounds below, note its CC50.
1. CN(C)CCN1CCN(c2ccnc3cc4ccccc4cc23)CC1
2. NCCNC(=O)COC(c1cccnc1)c1ccccc1Cl (configuration not stated)
3. COCCN1C(=O)c2[nH]nc(-c3ccccc3O)c2C1c1ccc(SC)cc1 (configuration not stated)
4. Cc1ccc(CNC(=O)c2cc3sc(Cl)cc3n2C)cc1
5. Oc1ccccc1C=Nc1ccccc1[Te]c1ccccc1N=Cc1ccccc1O

1. 1.55 µM
2. > 10 µM
3. > 87.7 µM
4. > 100 µM
5. 0.552 µM

---

test: NOVARTIS: Cytotoxicity against human hepatocellular carcinoma cell line (Huh7); assay type: toxicity, cell-based, Huh-7; settings: Huh7 cells (hepatocellular carcinoma cell line)
I'd appreciate it if you could supply CC50 values for the items below.

I need CC50 for every entry listed below, if you could help.
1. COc1ccc2c(c1)-c1c(ssc1=S)C(C)(C)N2C(=O)c1ccccc1F
2. O=C1NN=C(CC(=O)N2CC[C@@H](c3ccccc3)[C@H](O)C2)C2C=CC=CC12 (stereo not given in full)
3. COc1ccc(C2CC(=O)C3=C(C2)NC(C)=C(C(=O)OC2CCCC2)C3c2ccccc2OC)cc1OC (stereo not given)

1. > 100 µM
2. > 10 µM
3. > 100 µM

---

tested on: Plasmodium falciparum; experiment: NOVARTIS: Inhibition of Plasmodium falciparum 3D7 (drug-susceptible) proliferation in erythrocyte-based infection assay; format: functional, organism-based; details: Plasmodium falciparum, 3D7
MEASUREMENT NAME: EC50
Please format your answer as a value with the unit trailing.

Example entries and their recorded answers appear below.
CCCn1c(=N)c(C(=O)NC2CCCCC2)cc2c(=O)n3cccc(C)c3nc21 = 460 nM
Cc1cc(C)cc(-n2c(C)cc(/C=C3\SC(=Nc4ccc(Br)cc4)NC3=O)c2C)c1 = 2580 nM
OC(CNC1CCCCC1)Cn1c2ccccc2c2ccccc21 (stereo not given) = 483 nM

// input: 2 compounds below; output: EC50 for each
1. Cc1ccc(CNC(=O)C2CNCC2c2ccc(C(F)(F)F)cc2)cc1 (stereo not given)
2. Cc1cc2c(cc1C)-c1c(ssc1=Nc1cccc(C)c1C)C(C)(C)N2

1. 243 nM
2. 8590 nM
